- assaySystem: recombinant human secretory phospholipase A2 (Homo sapiens, UniProt P14555)
- Sequence (P14555 21-144): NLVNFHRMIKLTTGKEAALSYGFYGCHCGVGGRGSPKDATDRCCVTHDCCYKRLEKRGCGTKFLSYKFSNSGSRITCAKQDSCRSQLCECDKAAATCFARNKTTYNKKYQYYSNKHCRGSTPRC
- assayExplanation: Inhibition test of human secretory phospholipase A2 (chromogenic assay, 96 well microtiterplate)
- conditionSummary: sPLA2 50 ng/well, 40° C., 30 minutes, OD 405 nm, substrate 1,2-bis(heptanoylthio)-1,2-dideoxy-sn-glycero-3-phospholylcholine
pIC50: −log10 of the molar value.
parameter: pIC50

- CCc1c(C(=O)C(N)=O)c2c(OCC(=O)OC)cc(C)nn2c1Cc1ccccc1-c1ccc(F)cc1: 6.83
- CCc1c(C(=O)C(N)=O)c2c(OCC(=O)OC)cc(C)nn2c1Cc1cccc(Oc2ccccc2)c1: 6.99
- CCc1c(C(=O)C(N)=O)c2c(OCC(=O)OC)cc(C(F)(F)F)nn2c1Cc1ccc(F)cc1: 6.05
- CCc1c(C(=O)C(N)=O)c2c(OCC(=O)OC)cc(-c3ccccc3)nn2c1Cc1ccccc1: 7.17

Reference source: patent US6472389B1
